Study System: PikAIV full module (post-translational modification of its ACP domain (grown in BAP1 E. coli cells))
Procedure Details: fluorescence polarisation
pKd: −log10 of the molar value.

| Binder | pKd |
| --- | --- |
| PikAIII ACPdd-FL (PikAIII ACPdd with an added C-terminal cysteine labelled with BODIPY-FL) (domain or fragment, BODIPY-FL (iodoacetamide) on the added C-terminal cysteine) LAPAEPAPTDWEGRVRRALAELPLDRLRDAGVLDTVLRLTGIEPEPGSGGSDGGAADPGAEPEASIDDLDAEALIRMALGPRNTC | 5.30 |
